- Tested on: HCC1599
- PROTOCOL DESCRIPTION: normalised viability (% of control), CellTiter-Blue; higher = more viable cells (about 100 = DMSO control)
- TEST CONDITIONS: 10000 nM; incubation time: 72 h
MEASURED ATTRIBUTE: normalised viability
Returns: string containing the number followed by the unit.

Study these solved cases before continuing.
COc1cccc2cc(-c3nc([C@H]4CC[C@H](C(=O)O)CC4)n4ncnc(N)c34)[nH]c12 ... 47%
CN1CC[C@H](c2c(O)cc(O)c3c(=O)cc(-c4ccccc4Cl)oc23)[C@H](O)C1 ... 21.9%
C=CCNC1=C2C[C@@H](C)C[C@H](OC)[C@H](O)[C@@H](C)/C=C(\C)[C@H](OC(N)=O)[C@@H](OC)/C=C\C=C(/C)C(=O)NC(=CC1=O)C2=O ... 31.3%

# context switch: different compound, same normalised viability
Req: Enter reported normalised viability observed with HCC1599 for "CN(C)C/C=C/C(=O)Nc1cc2c(Nc3ccc(F)c(Cl)c3)ncnc2cc1O[C@H]1CCOC1"
Resp: 79.5%

====

- Tested on: MFM-223
- PROTOCOL DESCRIPTION: normalised response (% of control), CellTiter-Glo; higher = more viable cells (100 = DMSO, 0 = benzethonium chloride kill control)
- TEST CONDITIONS: incubation time: 72 h
MEASURED ATTRIBUTE: normalised response (%)
A number alone suffices; assume %.

Study these solved cases before continuing.
OC[C@H]1O[C@@H](n2cnc3c2N=CNC[C@H]3O)C[C@@H]1O [Pentostatin] (1000 nM) ... 103
CO[C@H]1C[C@@H]2CC[C@@H](C)[C@@](O)(O2)C(=O)C(=O)N2CCCC[C@H]2C(=O)O[C@H]([C@H](C)C[C@@H]2CC[C@@H](OC(=O)C(C)(CO)CO)[C@H](OC)C2)CC(=O)[C@H](C)/C=C(\C)[C@@H](O)[C@@H](OC)C(=O)[C@H](C)C[C@H](C)/C=C/C=C/C=C/1C [Temsirolimus] (0.01 nM) ... 101
O=C(c1ccc(C(=O)N2CCC(N3CCCC3)CC2)c(Nc2ccccc2)c1)N1CCC(N2CCCC2)CC1 [UNC1215] (30 nM) ... 91.4
CO[C@H]1C[C@@H]2CC[C@@H](C)[C@@](O)(O2)C(=O)C(=O)N2CCCC[C@H]2C(=O)O[C@H]([C@H](C)C[C@@H]2CC[C@@H](OC(=O)C(C)(CO)CO)[C@H](OC)C2)CC(=O)[C@H](C)/C=C(\C)[C@@H](O)[C@@H](OC)C(=O)[C@H](C)C[C@H](C)/C=C/C=C/C=C/1C [Temsirolimus] (10 nM) ... 70.7
CN1CCC(COc2cnc(-c3cccc(Cn4nc(-c5cccc(C#N)c5)ccc4=O)c3)nc2)CC1 (100 nM) ... 90.5
CN(C)C/C=C/C(=O)Nc1cc2c(Nc3ccc(F)c(Cl)c3)ncnc2cc1O[C@H]1CCOC1 [Afatinib] (100 nM) ... 106
Nc1ccn([C@@H]2O[C@H](CO)[C@@H](O)[C@@H]2O)c(=O)n1 [Cytarabine] (1000 nM) ... 101
CCN1CCN(c2ccc(Nc3cc(N(C)C(=O)Nc4c(Cl)c(OC)cc(OC)c4Cl)ncn3)cc2)CC1 [NVP-BGJ398] (0.1 nM) ... 96.6
COc1cc(Nc2ncc3c(n2)-c2ccc(Cl)cc2C(c2c(F)cccc2OC)=NC3)ccc1C(=O)O [Alisertib] (1 nM) ... 92.9
Nc1nc(Cl)nc2c1ncn2[C@H]1C[C@H](O)[C@@H](CO)O1 [Cladribine] (100 nM) ... 101

Req: Enter reported normalised response observed with MFM-223 for OC[C@H]1O[C@@H](n2cnc3c2N=CNC[C@H]3O)C[C@@H]1O [Pentostatin] (10 nM)
Resp: 101

Req: Same for Cc1ccc(F)c(NC(=O)Nc2ccc(-c3cccc4[nH]nc(N)c34)cc2)c1 [Linifanib] (0.1 nM)
Resp: 105

====

- Test system: BT-549
- PROTOCOL DESCRIPTION: normalised response (% of control), CellTiter-Glo; higher = more viable cells (100 = DMSO, 0 = benzethonium chloride kill control)
- TEST CONDITIONS: incubation time: 72 h
# normalised response values compiled below
A number alone suffices; assume %.

Study these solved cases before continuing.
CS(=O)(=O)c1ccc(C(=O)Nc2ccc(Cl)c(-c3ccccn3)c2)c(Cl)c1 [Vismodegib] (10000 nM) ... 102
COc1cccc2c1C(=O)c1c(O)c3c(c(O)c1C2=O)C[C@@](O)(C(=O)CO)C[C@@H]3O[C@H]1C[C@H](N)[C@H](O)[C@H](C)O1 [Doxorubicin] (1000 nM) ... 14.9
C=CCNC1=C2C[C@@H](C)C[C@H](OC)[C@H](O)[C@@H](C)/C=C(\C)[C@H](OC(N)=O)[C@@H](OC)/C=C\C=C(/C)C(=O)NC(=CC1=O)C2=O [Tanespimycin] (10000 nM) ... 35.5
S=c1[nH]cnc2nc[nH]c12 [Mercaptopurine] (10000 nM) ... 94.8
CCN1CCN(c2ccc(Nc3cc(N(C)C(=O)Nc4c(Cl)c(OC)cc(OC)c4Cl)ncn3)cc2)CC1 [NVP-BGJ398] (1000 nM) ... 75.9

Req: Form field: reported normalised response of COc1cccc2cc(-c3nc([C@H]4CC[C@H](C(=O)O)CC4)n4ncnc(N)c34)[nH]c12 [OSI-027] (10000 nM)
Resp: 24.8

Req: Same for CN1CCC(COc2cnc(-c3cccc(Cn4nc(-c5cccc(C#N)c5)ccc4=O)c3)nc2)CC1 (1000 nM)
Resp: 91.9

====

# normalised response values compiled below
- Test system: Hs578T
- PROTOCOL DESCRIPTION: normalised response (% of control), CellTox Green; higher = less cell death (100 = DMSO, 0 = benzethonium chloride kill control)
- TEST CONDITIONS: incubation time: 72 h
A number alone suffices; assume %.

Study these solved cases before continuing.
CN1CC[C@H](c2c(O)cc(O)c3c(=O)cc(-c4ccccc4Cl)oc23)[C@H](O)C1 [Alvocidib] (1000 nM) ... 65.7
CC[C@]1(O)C[C@@H]2CN(CCc3c([nH]c4ccccc34)[C@@](C(=O)OC)(c3cc4c(cc3OC)N(C)[C@H]3[C@@](O)(C(=O)OC)[C@H](OC(C)=O)[C@]5(CC)C=CCN6CC[C@]43[C@@H]65)C2)C1 [Vinblastine] (100 nM) ... -12.8
Cc1c2oc3c(C)ccc(C(=O)N[C@@H]4C(=O)N[C@H](C(C)C)C(=O)N5CCC[C@H]5C(=O)N(C)CC(=O)N(C)[C@@H](C(C)C)C(=O)O[C@@H]4C)c3nc-2c(C(=O)N[C@@H]2C(=O)N[C@H](C(C)C)C(=O)N3CCC[C@H]3C(=O)N(C)CC(=O)N(C)[C@@H](C(C)C)C(=O)O[C@@H]2C)c(N)c1=O [Dactinomycin] (100 nM) ... 26.1
CS(=O)(=O)c1ccc(C(=O)Nc2ccc(Cl)c(-c3ccccn3)c2)c(Cl)c1 [Vismodegib] (10000 nM) ... 82.8
Clc1ccc(C(c2ccccc2Cl)C(Cl)Cl)cc1 (centres undefined) [Mitotane] (10000 nM) ... 105

Req: Form field: reported normalised response of CS(=O)(=O)c1ccc(C(=O)Nc2ccc(Cl)c(-c3ccccn3)c2)c(Cl)c1 [Vismodegib] (1000 nM)
Resp: 100

Req: Same for C[C@]1(c2nc3c(C(N)=O)cccc3[nH]2)CCCN1 [Veliparib] (1000 nM)
Resp: 91.6

Req: Same for Cc1ccc(F)c(NC(=O)Nc2ccc(-c3cccc4[nH]nc(N)c34)cc2)c1 [Linifanib] (10 nM)
Resp: 87

Req: Same for COc1cccc2c1C(=O)c1c(O)c3c(c(O)c1C2=O)C[C@@](O)(C(=O)CO)C[C@@H]3O[C@H]1C[C@H](N)[C@H](O)[C@H](C)O1 [Doxorubicin] (100 nM)
Resp: 103

Req: Same for CCN1CCN(c2ccc(Nc3cc(N(C)C(=O)Nc4c(Cl)c(OC)cc(OC)c4Cl)ncn3)cc2)CC1 [NVP-BGJ398] (1000 nM)
Resp: 115

Req: Same for CCN1CCN(c2ccc(Nc3cc(N(C)C(=O)Nc4c(Cl)c(OC)cc(OC)c4Cl)ncn3)cc2)CC1 [NVP-BGJ398] (100 nM)
Resp: 91

Req: Same for CN1CCC(COc2cnc(-c3cccc(Cn4nc(-c5cccc(C#N)c5)ccc4=O)c3)nc2)CC1 (10 nM)
Resp: 76.3

Req: Same for COc1cccc2cc(-c3nc([C@H]4CC[C@H](C(=O)O)CC4)n4ncnc(N)c34)[nH]c12 [OSI-027] (100 nM)
Resp: 108

Req: Same for S=c1[nH]cnc2nc[nH]c12 [Mercaptopurine] (10000 nM)
Resp: 121
